# PROCEDURE SUMMARY: Half life was determined
# Type: ADME
EXPERIMENTAL ENDPOINT: half-life (h)

[[record]]
chemical_structure = "CN(CC#CCOC(=O)Nc1cccc(Cl)c1)CCCl"
unit_label = "h"
value_measured = 1.87


---

# PROCEDURE SUMMARY: Lethal dose was determined in male Swiss-Webster mice by intravenous injection using up-and-down method
# Format: toxicity, organism-based
# CONDITION SUMMARY: mouse, in vivo
EXPERIMENTAL ENDPOINT: LD50 (µmol/kg)

[[record]]
chemical_structure = "CN(CC#CCOC(=O)Nc1cccc(Cl)c1)CCCl"
value_measured = 166

[[record]]
chemical_structure = "C[N+](C)(C)CC#CCOC(=O)Nc1cccc(Cl)c1.[Cl-]"
value_measured = 3.7

[[record]]
chemical_structure = "CN(CC#CCOC(=O)Nc1cccc(Cl)c1)CCBr"
value_measured = 57.2

